Origin of the recorded values: patent US8853203B2

biological target: human mGluR1 (Homo sapiens (Human), UniProt Q13255); assay: mGluR1 antagonism, L-glutamate induced intracellular calcium increase (FLIPR) in CHO cells stably expressing human mGluR1; details: L-glutamate induced intracellular calcium, CHO cells expressing human mGluR1, FLIPR
Sequence (Q13255 19-1194): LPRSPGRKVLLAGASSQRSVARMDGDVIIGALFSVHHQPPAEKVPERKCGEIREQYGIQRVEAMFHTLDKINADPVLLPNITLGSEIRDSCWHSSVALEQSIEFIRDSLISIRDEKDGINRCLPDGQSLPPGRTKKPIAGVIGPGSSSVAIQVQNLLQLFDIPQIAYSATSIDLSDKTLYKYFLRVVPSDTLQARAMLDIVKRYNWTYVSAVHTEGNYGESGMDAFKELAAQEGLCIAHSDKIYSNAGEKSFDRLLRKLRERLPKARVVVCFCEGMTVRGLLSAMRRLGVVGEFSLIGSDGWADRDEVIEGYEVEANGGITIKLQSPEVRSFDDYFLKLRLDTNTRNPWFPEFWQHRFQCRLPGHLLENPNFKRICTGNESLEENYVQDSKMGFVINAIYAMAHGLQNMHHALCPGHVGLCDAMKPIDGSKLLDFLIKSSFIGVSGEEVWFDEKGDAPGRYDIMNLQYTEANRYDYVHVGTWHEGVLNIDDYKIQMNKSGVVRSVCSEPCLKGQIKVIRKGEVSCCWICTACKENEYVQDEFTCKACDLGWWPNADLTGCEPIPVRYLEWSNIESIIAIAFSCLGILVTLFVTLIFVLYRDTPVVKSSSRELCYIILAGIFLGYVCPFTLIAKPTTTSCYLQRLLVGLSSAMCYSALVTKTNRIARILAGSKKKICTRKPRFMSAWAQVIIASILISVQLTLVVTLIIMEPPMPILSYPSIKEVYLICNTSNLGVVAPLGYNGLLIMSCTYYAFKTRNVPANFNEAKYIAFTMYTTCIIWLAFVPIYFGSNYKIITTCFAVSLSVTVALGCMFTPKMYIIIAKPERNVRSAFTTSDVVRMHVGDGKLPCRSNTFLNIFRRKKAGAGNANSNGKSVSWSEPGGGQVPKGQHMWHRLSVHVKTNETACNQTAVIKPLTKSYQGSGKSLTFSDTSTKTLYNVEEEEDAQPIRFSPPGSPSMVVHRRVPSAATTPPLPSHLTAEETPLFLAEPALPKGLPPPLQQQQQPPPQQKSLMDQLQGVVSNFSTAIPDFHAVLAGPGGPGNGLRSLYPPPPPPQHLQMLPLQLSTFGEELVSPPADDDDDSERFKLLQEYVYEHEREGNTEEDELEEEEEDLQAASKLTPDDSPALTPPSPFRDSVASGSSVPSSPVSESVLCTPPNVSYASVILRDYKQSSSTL
OBSERVED_PROPERTY: IC50

[[record]]
compound = "COc1cc(C2=NCC(=O)N3CCc4c(Cl)cccc4C3=C2)ccn1"
test_target = "human mGluR1 (Homo sapiens (Human), UniProt Q13255)"
observed_measurement = "3050 nM"

[[record]]
compound = "O=C1CN=C(n2cnc(C3CC3)n2)C=C2c3cccc(-c4nccnc4F)c3CCN12 [Example 88b]"
test_target = "human mGluR1 (Homo sapiens (Human), UniProt Q13255)"
observed_measurement = "> 2000 nM"

[[record]]
compound = "N#Cc1cccc2c1CCN1C(=O)CN=C(c3cccs3)C=C21"
test_target = "human mGluR1 (Homo sapiens (Human), UniProt Q13255)"
observed_measurement = "1600 nM"

[[record]]
compound = "O=C1CN=C(n2cnc(C3CC3)c2)C=C2c3cccc(-c4ncco4)c3CCN12"
test_target = "human mGluR1 (Homo sapiens (Human), UniProt Q13255)"
observed_measurement = "1300 nM"

[[record]]
compound = "Cn1ccc(C2=NCC(=O)N3CCc4c(C#N)cccc4C3=C2)n1"
test_target = "human mGluR1 (Homo sapiens (Human), UniProt Q13255)"
observed_measurement = "> 10000 nM"


Give its IC50 value. Item: `O=C1CN=C(c2cccs2)C=C2c3cccc(Cl)c3CCN12`
27 nM

Give its IC50 value. Item: Cc1ncn(C2=NCC(=O)N3CCc4c(ccc(F)c4-c4cccnc4F)C3=C2)n1 [Example 99r]
> 10000 nM

Give its IC50 value. Item: `COc1cccc(C2=NCC(=O)N3CCc4c(cccc4N4CCOCC4)C3=C2)c1`
> 10000 nM

====

molecular target: human mGluR5a receptors (Homo sapiens (Human)); test: inhibition of glutamate-induced elevation of intracellular calcium in L(tk-) cells expressing human mGluR5a; settings: glutamate-induced intracellular calcium elevation, L(tk-) cells expressing human mGluR5a; read-out: mGluR5 IC50
OBSERVED_PROPERTY: IC50 (nM)

[[record]]
compound = "CCOC(=O)c1cn(C2=NCC(=O)N3CCc4c(I)cccc4C3=C2)cn1 [Example 68]"
observed_measurement = 1700


A. O=C1CN=C(n2cnc(C3CC3)c2)C=C2c3cccc(-c4cccnc4F)c3CCN12 [Example 97]
B. O=C1CN=C(n2cnc(C3CC3)c2)C=C2c3cccc(-c4cnccc4F)c3CCN12 [Example 88k]
C. COc1ccc(-c2cccc3c2CCN2C(=O)CN=C(n4cnc(C5CC5)c4)C=C32)cn1 [Example 99d]
D. COc1cccc(C2=NCC(=O)N3CCc4c(OC)cccc4C3=C2)n1 [Example 9]
rank_up(items): orders items by reported IC50 in ascending numerical order. // rank by listing labels in the order requested
A, B, C, D

====

target: human mGluR5a receptors (Homo sapiens (Human), UniProt P41594); test: inhibition of glutamate-induced elevation of intracellular calcium in L(tk-) cells expressing human mGluR5a; type: cell-based; details: LTK; read-out: mGluR5 % inhibition at 10 μM
Sequence (P41594 other isoform, or with tags, fused parts or gaps): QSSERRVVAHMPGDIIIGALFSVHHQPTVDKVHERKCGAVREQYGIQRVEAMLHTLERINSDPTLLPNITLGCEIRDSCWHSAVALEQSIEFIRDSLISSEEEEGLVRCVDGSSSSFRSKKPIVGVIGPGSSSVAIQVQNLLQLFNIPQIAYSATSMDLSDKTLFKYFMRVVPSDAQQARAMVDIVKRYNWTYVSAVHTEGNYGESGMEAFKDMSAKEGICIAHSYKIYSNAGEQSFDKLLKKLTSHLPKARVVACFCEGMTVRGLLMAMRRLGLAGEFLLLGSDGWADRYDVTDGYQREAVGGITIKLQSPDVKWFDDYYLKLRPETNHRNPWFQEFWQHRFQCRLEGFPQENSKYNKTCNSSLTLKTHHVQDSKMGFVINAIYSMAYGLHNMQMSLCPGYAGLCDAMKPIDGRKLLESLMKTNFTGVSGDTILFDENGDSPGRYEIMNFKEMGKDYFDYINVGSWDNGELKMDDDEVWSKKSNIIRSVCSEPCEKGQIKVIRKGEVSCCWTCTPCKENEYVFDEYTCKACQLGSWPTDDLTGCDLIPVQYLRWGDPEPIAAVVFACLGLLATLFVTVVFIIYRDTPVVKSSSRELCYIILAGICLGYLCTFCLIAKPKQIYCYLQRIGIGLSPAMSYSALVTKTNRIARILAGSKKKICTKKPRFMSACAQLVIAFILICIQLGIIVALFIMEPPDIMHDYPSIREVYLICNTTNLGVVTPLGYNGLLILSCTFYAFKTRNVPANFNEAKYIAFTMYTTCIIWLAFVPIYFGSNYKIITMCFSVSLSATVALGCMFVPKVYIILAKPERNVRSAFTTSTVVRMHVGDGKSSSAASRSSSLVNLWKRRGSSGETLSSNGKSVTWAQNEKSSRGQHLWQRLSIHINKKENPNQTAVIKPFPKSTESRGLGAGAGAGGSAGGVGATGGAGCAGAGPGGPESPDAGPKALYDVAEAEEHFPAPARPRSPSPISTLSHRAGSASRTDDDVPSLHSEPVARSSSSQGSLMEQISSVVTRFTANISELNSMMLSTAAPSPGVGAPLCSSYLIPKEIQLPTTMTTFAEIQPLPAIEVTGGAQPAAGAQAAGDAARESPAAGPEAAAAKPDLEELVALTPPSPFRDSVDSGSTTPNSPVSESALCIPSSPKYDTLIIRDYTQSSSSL
OBSERVED_PROPERTY: inhibition at 10 µM (%)

[[record]]
compound = "Cc1cc(-c2cccc3c2CCN2C(=O)CN=C(c4ccn(C)n4)C=C32)ccn1"
test_target = "human mGluR5a receptors (Homo sapiens (Human), UniProt P41594)"
observed_property = "inhibition at 10 µM"
observed_measurement = 24

[[record]]
compound = "COc1cccc2c1CCN1C(=O)CN=C(c3cccc(O)n3)C=C21"
test_target = "human mGluR5a receptors (Homo sapiens (Human), UniProt P41594)"
observed_property = "inhibition at 10 µM"
observed_measurement = 26

[[record]]
compound = "COc1cccc(C2=NCC(=O)N3CCc4c(ccc(OC)c4OC)C3=C2)c1"
test_target = "human mGluR5a receptors (Homo sapiens (Human), UniProt P41594)"
observed_property = "inhibition at 10 µM"
observed_measurement = 23


I. CCOc1cccc(C2=NCC(=O)N3C(=C2)c2cccc(OC)c2CC3C)c1 (stereo not shown)
II. COc1cccc2c1CCN1C(=O)CN=C(c3cc[nH]c(=O)c3)C=C21
Hi, I'm comparing two records. Which one has the lower inhibition at 10 µM, I or II ? Response format: the label of the selected entry.
II
(II: 27%, I: 42%)
